Measured pIC50 accompanies every entry in the list below.
# SYSTEM: Sphingosine 1-phosphate receptor 4 (Homo sapiens, UniProt O95977)
# Sequence (O95977 whole entry): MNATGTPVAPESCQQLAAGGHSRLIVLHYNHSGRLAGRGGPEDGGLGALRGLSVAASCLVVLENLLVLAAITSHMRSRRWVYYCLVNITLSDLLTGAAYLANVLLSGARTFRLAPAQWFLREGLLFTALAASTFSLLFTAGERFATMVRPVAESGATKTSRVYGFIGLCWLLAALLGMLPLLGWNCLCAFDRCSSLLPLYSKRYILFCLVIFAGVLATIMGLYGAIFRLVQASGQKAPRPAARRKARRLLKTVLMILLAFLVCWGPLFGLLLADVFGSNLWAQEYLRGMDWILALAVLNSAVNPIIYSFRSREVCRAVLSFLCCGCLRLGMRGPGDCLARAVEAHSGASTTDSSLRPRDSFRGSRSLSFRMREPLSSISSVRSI
# PROCEDURE SUMMARY: Binding affinity to human sphingosine 1-phosphate receptor 4 expressed in CHO cells was determined by using [33P]-S1P as radioligand
# Assay type: cell-based
pIC50: −log10 of the molar value.
PARAMETER MEASURED: pIC50

# COMPOUND, SYSTEM, QUALIFIER OPERATOR, QUANTITATIVE READOUT
records = [
    ("CCCCCCCc1ccc(CCCCNCCCP(=O)(O)O)cc1", "Sphingosine 1-phosphate receptor 4 (Homo sapiens, UniProt O95977)", "<", 5.00),
    ("CCCCCCCCCc1ccc(CNCCC(F)(F)C(=O)O)cc1", "Sphingosine 1-phosphate receptor 4 (Homo sapiens, UniProt O95977)", "=", 5.40),
    ("CCCCCCCc1ccc(CCCNCCCP(=O)(O)O)cc1", "Sphingosine 1-phosphate receptor 4 (Homo sapiens, UniProt O95977)", "=", 6.08),
    ("CCCCCCCCCc1ccc(CNCCC(O)C(=O)O)cc1 (stereo unspecified)", "Sphingosine 1-phosphate receptor 4 (Homo sapiens, UniProt O95977)", "=", 5.92),
    ("CCCCCCCCCc1ccc(CNCC(F)CC(=O)O)cc1 (stereo unspecified)", "Sphingosine 1-phosphate receptor 4 (Homo sapiens, UniProt O95977)", "=", 6.22),
    ("CCCCCCCCCCCCCCCCCCC(N)CCP(=O)(O)O (stereo unspecified)", "Sphingosine 1-phosphate receptor 4 (Homo sapiens, UniProt O95977)", "<", 5.00),
]
